Kindly state CellTox Green cytotoxicity fluorescence for each of the entries shown.
- System: MV4-11
- PROCEDURE SUMMARY: CellTox Green cytotoxicity fluorescence relative to DMSO vehicle (fold of vehicle RFU); higher = more cell death (loss of membrane integrity), active = 2 or more
- TEST CONDITIONS: 0.1 µM; 48 h
Where a name gives a salt, the structure may show the parent alone.
Numbers only.

The following compounds have reported results that may help.
>  <COMPOUND>
FC(F)(F)c1ccc(CNc2ccc(Cc3c[nH]c4ncc(Cl)cc34)cn2)cn1

>  <VALUE>
1.17

$$$$
>  <COMPOUND>
COc1ccc(CCNCc2ccc(OCc3ccc(Cl)nc3)c(OC)c2)cc1OC

>  <VALUE>
0.961

$$$$
>  <COMPOUND>
O=C(NS(=O)(=O)c1ccc(Br)s1)c1ccc(Cl)cc1Cl

>  <VALUE>
0.984

$$$$
>  <COMPOUND>
NS(=O)(=O)C#Cc1ccccc1

>  <VALUE>
0.987

$$$$

I'm hoping you can list CellTox Green cytotoxicity fluorescence for every compound here, please.
1. Cn1cc(-c2ccc3c(c2)CCN3C(=O)Cc2cccc(C(F)(F)F)c2)c2c(N)ncnc21
2. N#Cc1ccc(-c2c(-c3ncn[nH]3)sc(N3CCOCC3)c2C#N)c(F)c1
3. CCCCNc1ncc2c(-c3ccc(CN4CCN(C)CC4)cc3)cn([C@H]3CC[C@H](O)CC3)c2n1
4. CC(C)c1cc2c(N3CCN(C4=NCC(C)(C)S4)CC3)ncnc2s1
5. COc1c/c(=C2\C=c3ccccc3=N2)[nH]/c1=C\c1[nH]c(C)cc1C [Obatoclax Mesylate]

[0.981, 0.993, 1.47, 0.889, 0.997]
